test system: U251 CNS; test: NCI tumour cell line growth inhibition, 48 h
Quantity: TGI

Below: 3 compounds and their reported TGI.
O=C(n1[nH]c(=O)n(-c2ccc([N+](=O)[O-])cc2)c1=O)C(Cl)(Cl)Cl ... > 75 µM
CC(=O)OCCC[C@@H]1C(=C(C)C)CCC2[C@@]1(C)CC[C@@]1(C)C[C@](C)(CCC=C(C)C)CC[C@]21C (some centres undefined) ... > 100 µM
COc1ccc(C(=O)O)c2c(=O)c3ccccc3[nH]c12 ... > 100 µM

Hi! Can you tell me TGI for each of these compounds?
1. CC(C)CC(=O)OC[n+]1cccc(-c2c(COC(=O)NC(C)C)c(COC(=O)NC(C)C)c3n2CCC3)c1
2. C/C(=C\c1csc(C)n1)[C@@H]1C[C@@H]2O[C@]2(C)CCC[C@H](C)[C@H](O)[C@@H](C)C(=O)C(C)(C)[C@@H](O)CC(=O)O1 (tested in a mixture with another compound)
3. O=C1CN2CCC1C/C2=C\c1ccnc2c(Cl)cccc12 (centres undefined)
4. COC(=O)CC1CN(C(=O)OCc2ccccc2)C(C)(C)O1 (centres undefined)
5. OCC1OC(O)C(N=Cc2ccc3c(c2)OCO3)C(O)C1O (centres undefined)
6. CCOC(=O)C(=O)Nc1ccc([N+](=O)[O-])cc1C#N
7. COc1ccccc1NC(=S)Nc1cccc(C)n1
8. CSC1=N/C(=C\c2ccc(Cl)cc2)C(=O)N1CN1CCOCC1

1: > 100 µM; 2: > 1 µM; 3: > 100 µM; 4: > 100 µM; 5: > 100 µM; 6: > 100 µM; 7: > 100 µM; 8: > 100 µM
